- assay.info: BET inhibitor-based combinations targeting novel dependencies in MECOM-rearranged (r) AML: MV-4-11 cell line (AID 2202233); note: nearly all actives have a fitted effect of over 45% in size
- run.conditions: MV-4-11 AML viability, CellTiter-Glo luminescence, 48 h; series mostly up to 46 µM
Inconclusive results are not listed. The source made the active and inactive calls. Calls come from the whole dose curve; as a rule, active = well fitted inhibition curve with a large enough effect; inconclusive = small, poorly fitted or top-dose-only effect; inactive = no such curve, though single readings can be large or run the other way.
Write down the outcome that applies. Available outcomes: Y for active, N for inactive

Solved cases below.
INSERT INTO assay_data (compound, assigned_category) VALUES
  ('CC(Nc1ncnc2nc[nH]c12)c1cc2cccc(Cl)c2c(=O)n1-c1ccccc1 (stereo not given)', 'Y'),
  ('CS(=O)(=O)c1ccc(-c2nnc(/C=C/c3nnc(-c4ccc(C#N)cc4)o3)n2-c2ccccc2Cl)nc1', 'Y'),
  ('NC(=O)N1CCC(CC(=O)N2CCC([C@H]3c4ncc(Br)cc4CCc4cc(Cl)cc(Br)c43)CC2)CC1', 'Y');

Q: Assay outcome for CCn1cc(C(=O)O)c(=O)c2cc(F)c(N3CCNCC3)cc21 : what was it?
Result: N

Data origin: PubChem BioAssay (NCATS)
